system_tested: DNA dC->dU-editing enzyme APOBEC-3A (Homo sapiens) (UniProt P31941)
Sequence (P31941 whole entry, looked up): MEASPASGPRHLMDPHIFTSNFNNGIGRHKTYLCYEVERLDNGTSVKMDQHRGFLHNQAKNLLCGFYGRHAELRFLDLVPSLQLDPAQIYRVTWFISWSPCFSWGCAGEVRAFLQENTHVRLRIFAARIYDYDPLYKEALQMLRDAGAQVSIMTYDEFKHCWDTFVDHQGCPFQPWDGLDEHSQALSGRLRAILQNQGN
test_method_notes: APOBEC3A deaminase inhibitors, retest, confirmation, selectivity assay for APOBEC3G inhibitor project, biochemical, single concentration, fluorescence readout (AID 493151);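 note: plate controls were DMSO wells with A3A for no effect and wells lacking A3A enzyme for full effect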
condition_info: recombinant A3A, ssDNA deaminase UDG fluorescence assay; at 20 µM; active compounds read high
In all, about 1,400 compounds went through this assay and about 860 (61%) were called active. So high a share suggests a set chosen from earlier hits. Only a sample is shown.
endpoint: inhibition (%)
Response body: numeric value in %, unit text excluded.

## Task Please provide the recorded inhibition for `O=C(N/N=C\c1cccnc1)c1cc(-c2ccccc2)nc2c(Cl)cccc12` , tested on DNA dC->dU-editing enzyme APOBEC-3A (Homo sapiens) (UniProt P31941).
## Result -3

## Task // next record `COCCCn1c(Cc2csc(Nc3cccc(Cl)c3)n2)nnc1SCC(=O)OC1CCCCC1`
## Result 72.2

## Task // next record `Cc1cc(/C=N/NC(=O)CC2(C)OCCO2)c(C)n1-c1ccc(Cl)c(Cl)c1`
## Result 0.39

## Task // next record `Cc1snc(SCc2c(F)cccc2Cl)c1C#N`
## Result 30.3

## Task // next record C[N+]1(CC(O)COc2ccccc2)CCN(C(=O)c2ccc([N+](=O)[O-])cc2)CC1 (stereo not drawn)
## Result 74.8

## Task // next record `N#Cc1ncc(C(F)(F)F)cc1Oc1cccnc1`
## Result -4.78

## Task // next record `C[n+]1ccc(C(=O)NCc2ccccc2)cc1`
## Result 63

## Task // next record `O=C(COC(=O)c1cnc(Cl)c(Cl)c1)NCc1ccco1`
## Result 19.3

## Task // next record `C=CC1=C(C(=O)O)N2C(=O)[C@@H](NC(=O)/C(=N/OCC(=O)O)c3csc(N)n3)[C@H]2SC1`
## Result 76.3

## Task // next record `O=C(c1ccc(CS(=O)(=O)c2ccccc2)o1)N1CCN(c2ccccc2)CC1`
## Result 31.7

## Task // next record `CSc1nnc(SCc2nc3sc(C(=O)O)c(C)c3c(=O)[nH]2)s1`
## Result 68.9

## Task // next record CC1=NN(C(=O)CCc2ccccc2O)C(O)(C(F)(F)F)C1 (stereo not drawn)
## Result 21.4

## Task // next record `CCN1C(=NCCc2cccnc2)N[C@@H](c2ccccc2)[C@H](C(=O)OC)[C@H]1C`
## Result 61.1

## Task // next record `S=C(Nc1cccnc1)Nc1ccccn1`
## Result -2

## Task // next record `O=C(CNC1CCCCC1)NCC1(c2ccccc2)CCCC1`
## Result 29.8

## Task // next record `CCN(CC)CCOC(=O)c1ccc(NC(=O)CNC(=O)c2ccccc2)cc1`
## Result 2.53

## Task // next record CC(=O)Nc1ccc(NC(=O)C2CCCN(S(=O)(=O)c3ccc(Cl)cc3)C2)cc1 (stereo not drawn)
## Result -5.52

## Task // next record `COc1ccc(CCNC(=O)COC(=O)/C=C/c2cccs2)cc1OC`
## Result -7.13

## Task // next record `CC[n+]1c(C)n(-c2ccccc2)c2ccc(NC(C)=O)cc21`
## Result 73.8

## Task // next record `Cc1csc(SCC(=O)Nc2sccc2C#N)n1`
## Result 0.02

## Task // next record `COc1ccc2[nH]c(=O)c(-c3noc(-c4ccc(F)cc4)n3)cc2c1`
## Result 5.11

## Task // next record CC(Oc1ccc(F)cc1)C(=O)Nc1cc(S(=O)(=O)N2CCOCC2)ccc1N1CCN(C)CC1 (stereo not drawn)
## Result 55.2

## Task // next record `N#Cc1ccccc1CN1C(=O)S/C(=C/c2cccn2-c2cccc(C(=O)O)c2)C1=O`
## Result 53.8

## Task // next record `CC1(C)CC(N2CCN(C(c3ccccc3)c3ccccc3)CC2)=CC(=[N+]2CCCCC2)C1`
## Result 58.7

## Task // next record `C[N+](C)(CCCCCC[N+](C)(C)CCCN1C(=O)c2cccc3cccc(c23)C1=O)CCCN1C(=O)c2cccc3cccc(c23)C1=O`
## Result 35.2

## Task // next record `CS(=O)(=O)c1ccc2c(c1)SC1=NC(=O)/C(=C/c3ccco3)C(=N)N12`
## Result 33.9

## Task // next record `CCN1C(=NCC(C)C)N[C@@H](CCc2ccccc2)[C@H](C(=O)NCC(C)C)[C@H]1C`
## Result 37.8

## Task // next record `COc1ccc(C)cc1NC(=O)CCCN1C(=O)NC(C)(C)C1=O`
## Result 48.1

## Task // next record COc1ccc(Br)cc1CN(C)C(=O)C1CC(=O)N(C2CCCC2)C1 (stereo not drawn)
## Result 27.6

## Task // next record `Cc1nnc(N/N=C/c2ccccn2)[nH]c1=O`
## Result -1.88

## Task // next record `CCOC(=O)c1ccc(NC(=O)CSc2ncccn2)cc1`
## Result 59

## Task // next record `Cc1ccc(CCCOC(=O)C[N+]2(C)CCCCC2)cc1`
## Result 81.4

## Task // next record `CCCc1nc(-c2cc3cc(C)ccc3[nH]c2=O)no1`
## Result 67.6

## Task // next record `CCS(=O)(=O)c1ccc(-c2cccc(NC(=O)c3ccc(Br)o3)c2)nn1`
## Result -5.47

## Task // next record `CCN(CC)CCCNC(=O)CCn1nc(-c2ccc(Cl)cc2)ccc1=O`
## Result -4.91

## Task // next record `COc1ccc(Cc2nnc(NC(=O)c3ccc(OC)cc3OC)s2)cc1`
## Result -9.68

## Task // next record `CCNC(=O)COC(=O)CCNC(=O)c1cccc(C)c1`
## Result 25.7

## Task // next record Cc1cc2c(cc1C)[n+](C)cn2CC(O)COCC1CC=CCC1 (stereo not drawn)
## Result 73.1
